// provenance: patent US12617783B2

Listed next: entries and their corresponding half-life.
TEST: Pharmacokinetic analysis in male SD rats
Assay type: in vivo
TEST SETTINGS: Sprague-Dawley (SD), rat, plasma, 1.0 mg/kg iv
Just the number in h, nothing appended.

Answered examples (3):
>>> recorded_number("Cc1cc(-n2nc3c(c2-n2ccn(-c4ccc5c(cnn5C)c4F)c2=O)[C@@H]2CC[C@H](C3)N2C(=O)c2cc3cc([C@H]4CCOC(C)(C)C4)ccc3n2[C@@]2(c3noc(=O)[nH]3)C[C@@H]2C)cc(C)c1F [Compound 36]")
5.04
>>> recorded_number("Cc1cc(-n2nc3c(c2-n2ccn(-c4ccc5c(cnn5C)c4F)c2=O)[C@@H]2CC[C@H](C3)N2C(=O)c2cc3cc([C@H]4CCOC5(CC5)C4)ccc3n2[C@@]2(c3noc(=O)[nH]3)C[C@@H]2C)cc(C)c1F [Compound 214]")
4.83
>>> recorded_number("Cc1cc(-n2nc3c(c2-n2ccn(-c4ccc5c(cnn5C)c4F)c2=O)[C@H](C)N(C(=O)c2cc4cc([C@H]5CCOC(C)(C)C5)ccc4n2[C@@]2(c4noc(=O)[nH]4)C[C@@H]2C)CC3)cc(C)c1F [Orforglipron, orforglipron, reference compound]")
8.13

# ---- query compound ----
## Task Query half-life for Cc1cc(-n2nc3c(c2-n2ccn(-c4ccc5c(cnn5C)c4F)c2=O)[C@@H]2COC[C@H](C3)N2C(=O)c2cc3cc([C@H]4CCOC(C)(C)C4)ccc3n2[C@@]2(c3noc(=O)[nH]3)C[C@@H]2C)cc(C)c1F [Compound 121]
## Result 3.14
